- target entity: Neurogenic locus notch homolog protein 3 (Homo sapiens)
- assay summary: NOTCH3 binders on small-molecule microarray, primary screen, biochemical, 635/667 nm fluorescence (AID 1096)
- experimental setup: NOTCH3 binding, 635 nm fluorescence, higher = more signal
For each entry below, report its composite z-score value.
Just the number.

Query block: Identify measured composite z-score corresponding to O=C1c2ccccc2[C@](Cc2ccccc2I)(C(=O)NCCN2CCOCC2)[C@H](c2ccc(CO)cc2)N1Cc1ccccc1C(F)(F)F
Result block: 1.01

Query block: Give composite z-score for Cc1ccc(S[C@]2(C(=O)NC3CC3)CC(=O)N(C3Cc4ccccc4C3)[C@@H]2c2ccc(CO)cc2I)cc1
Result block: -0.847

Query block: Entry COCCOC(=O)N1C(=O)[C@@]2(c3cc(C#CCC(C(=O)OC)C(=O)OC)ccc31)[C@H](C(=O)N1CCc3cc(OC)c(OC)cc3C1)[C@H]1C(=O)O[C@H](c3ccccc3)[C@H](c3ccccc3)N1[C@@H]2c1ccccc1OCCO needs its composite z-score filled in; supply it.
Result block: 1.01

Query block: Quick one: give measured composite z-score for O=C1C2C=CC(C(O)c3ccccn3)N(Nc3ccc([N+](=O)[O-])cc3)C2C(=O)N1c1ccccc1 (centres undefined)
Result block: 0.772

====

- assay summary: HepG2 liver cancer cell viability effects, profiling panel, resazurin fluorescence, 24 h, PK04 Diversity Set (AID 1172); note: test concentration not given here
- experimental setup: higher = more signal
property label: z-score
Number, no unit, nothing else.

Query block: Please list z-score recorded for the compound C=C(C(=O)CC[C@@H](OC(=O)c1ccccc1-c1ccccc1C(=O)O)c1cccc(OCCO)c1)C(C)C
Result block: 0.821

Query block: Complete the entry with z-score for COc1cc(CO)cc(I)c1O[C@H]1C=C(C(=O)NCCO)C[C@@H](N(CCN2CCOCC2)C(=O)C2CCCO2)[C@@H]1O (stereo partly drawn)
Result block: 0.687

Query block: Specify measured z-score for COc1ccc([Si](C)(C)[C@H]2[C@H](CC(=O)N3CCC[C@H]3CO)O[C@@]3(C(=O)N(C)c4ccccc43)[C@@H]2C)cc1 .
Result block: -0.395

====

- assay summary: binders of probe aFSTL3 on microarray, primary screen, stem cell growth factor project, biochemical, small-molecule microarray, fluorescence 635/667 (AID 1064);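 note: measures binding of the biotinylated anti-FSTL3 antibody to printed compounds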
- experimental setup: higher = more signal
Label scheme for composite z-score: lower than -0.001 is NO, -0.001 and above is YES.

Query block: Would you say CCCC=C(CCC)[C@@H](NC(=O)c1ccc(C(=O)OC)cc1)c1ccc(C(=O)OC)cc1 shows composite z-score at minimum -0.001?
Result block: YES

Query block: API: above_or_equal(metric=composite z-score, cutoff=-0.001) for item C=C1C(=O)C=C2CN(C(=O)c3ccccc3)[C@@](Cc3ccc(F)cc3)(C(=O)OC)[C@@H]12
Result block: YES

Query block: I'd appreciate it if you could say whether CCOC(=O)C[C@H]1[C@H](OC(=O)c2ccccc2-c2ccccc2)[C@@H](NC(=O)CC(C)C)c2cc(OCCCO)ccc2N1C(=O)c1ccccc1 has composite z-score at least equal to -0.001.
Result block: NO

Query block: Please tell me: is the molecule COC(=O)c1c2oc(c1C(=O)OC)C(=O)N[C@H](Cc1ccccc1)Cn1cc(nn1)C1(CCCCC1)NC(=O)N[C@H](CO)CC2 at or over -0.001 in terms of composite z-score?
Result block: NO

Query block: Decide: composite z-score of C=C(COC)/C(=C/C[C@@H](OC(=O)c1ccncc1)c1ccccc1OCCO)c1cnc2ccccc2c1 >= -0.001?
Result block: NO

Query block: Evaluate CC(C)(C)OC(=O)CC[C@]1(C(=O)N2CCOCC2)COC(c2ccc(OCCCO)cc2)=N1 : composite z-score at minimum -0.001?
Result block: NO

Query block: API: above_or_equal(metric=composite z-score, cutoff=-0.001) for item COCCCNC(=O)[C@@]1(Cc2ccccc2I)c2ccccc2C(=O)N(Cc2ccccc2OC)[C@H]1c1ccc(CO)cc1
Result block: YES

Query block: Could you verify whether the entry Cc1ccc(S[C@]2(C(=O)NCCN3CCOCC3)CC(=O)N(C(C)C)[C@@H]2c2ccc(CO)cc2I)cc1 shows composite z-score of no less than -0.001?
Result block: YES

Query block: Given the entry CC(C)c1ccc(NN2C(C(O)C3CCCCC3)C=CC3C(=O)N(c4ccccc4)C(=O)C32)cc1 (stereo not drawn) , answer whether its composite z-score meets or surpasses -0.001.
Result block: YES

Query block: Answer whether composite z-score of CC1C2C(CCCO)=CC(C3C(=O)N(C)C(=O)C23)N1Cc1cccc(OC(F)(F)F)c1 (stereo not drawn) is greater than or equal to -0.001.
Result block: NO

Query block: Kindly determine if composite z-score recorded for COC(=O)[C@@]1(Cc2ccc(F)cc2)[C@@H]2C(=CC(=O)[C@H]2CC(=O)C(=O)N2CCCC2)CN1C(=O)c1ccccc1 is above or exactly -0.001.
Result block: YES

Query block: Has COCCOC(=O)N1C(=O)[C@@]2(c3cc(C#CC4=CCCCC4)ccc31)[C@H](c1ccc(O)cc1)N1[C@H](c3ccccc3)[C@H](c3ccccc3)OC(=O)[C@H]1[C@@H]2C(=O)N1CCc2cc(OC)c(OC)cc2C1 a recorded composite z-score greater than or equal to -0.001?
Result block: NO

Query block: Reported composite z-score reaches at least -0.001 for COC(=O)[C@]1(Cc2ccccc2CN=[N+]=[N-])N=C(c2ccc(OCCCO)cc2)O[C@@H]1c1ccccc1N=[N+]=[N-] ?
Result block: YES
